# studySystem: phosphorylated active hERK2 enzyme (Homo sapiens (Human))
# Sequence (P28482 whole entry): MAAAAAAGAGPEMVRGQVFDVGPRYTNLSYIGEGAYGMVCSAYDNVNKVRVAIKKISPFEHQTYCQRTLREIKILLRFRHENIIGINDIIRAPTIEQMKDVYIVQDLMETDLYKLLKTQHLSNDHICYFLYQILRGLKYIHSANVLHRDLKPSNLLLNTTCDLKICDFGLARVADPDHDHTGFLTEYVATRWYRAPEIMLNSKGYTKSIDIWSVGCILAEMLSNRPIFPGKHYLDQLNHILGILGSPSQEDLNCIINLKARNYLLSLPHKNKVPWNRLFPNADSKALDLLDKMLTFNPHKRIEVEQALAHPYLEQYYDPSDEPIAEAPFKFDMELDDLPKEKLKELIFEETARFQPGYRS
# assayInfo: Active Human ERK2 (hERK2) Activity Assay (IMAP-FP)
# Assay type: biochemical
# experimentalContext: Table 6, 0.5 nM hERK2, 30 μM ATP, 10 point titration, read-out: AERK2 IC50
Hi there, I'd appreciate the recorded pIC50 for every entry that follows.
In textbook form, pIC50 equals minus log to base ten of the concentration in mol/L.

Request: Fill blank: measured pIC50 of the molecule CCNc1n[nH]c2cc(NC(=O)NCc3ncccc3Cl)ncc12 is ____.
Result: 7.66

Request: Consider next the molecule COc1nc(NC(=O)N[C@H](C)c2ccccc2)cc2[nH]nc(N)c12 in the same way.
Result: 9.15

Request: And the next one, CC(Nc1n[nH]c2cc(NC(=O)N[C@@H](c3ccccc3)C(C)(C)O)ncc12)C(F)(F)F (some centres unmarked) ?
Result: 9.15

Request: What would you report for C[C@@H](NC(=O)Nc1cc2[nH]nc(N3CC4CCC(C3)O4)c2cn1)c1ccccc1 ?
Result: 8.47

Request: Field entry: C[C@@H](NC(=O)Nc1cc2[nH]nc(NC(=O)c3ccccn3)c2cn1)c1ccccc1
Result: 7.93

Request: Can you handle CCNc1n[nH]c2cc(NC(=O)N[C@H](C)c3ccccc3)nc(Cl)c12 next?
Result: 7.93

Request: Proceed to C[C@@H](NC(=O)Nc1cc2[nH]nc(N3CC(CO)C3)c2cn1)c1ccccc1
Result: 8.57

Request: Note, next up: CCNc1n[nH]c2cc(NC(=O)N[C@@H](c3ccc(F)cc3)C(C)(C)O)ncc12
Result: 9.40

----------
# studySystem: UniProtKB P28482
# assayInfo: Active Human ERK2 (hERK2) Activity Assay (IMAP-FP)
# Type: biochemical
# experimentalContext: Table 6, 0.5 nM hERK2, 30 μM ATP, 10 point titration, read-out: AERK2 IC50
Assignment: determine reported pIC50 for the given compounds.
Scale: pIC50 equals -log10([C]), with [C] in mol/L.

Request: Reported pIC50 for C[C@@H](NC(=O)Nc1cc2[nH]nc(N[C@H](C)c3ccccn3)c2cn1)c1ccccc1 : what is it?
Result: 7.87

Request: What do you have for Cn1cc2c(n1)CCN(c1n[nH]c3cc(NC(=O)N[C@@H](c4ccc(F)cc4)C(C)(C)O)ncc13)C2 ?
Result: 9.70

Request: Entry to check: C[C@@H](NC(=O)Nc1cc2[nH]nc(N(CC3CC3)CC3CC3)c2cn1)c1ccccc1
Result: 6.55

Request: Would you mind doing CCNc1n[nH]c2cc(NC(=O)NCc3ccc(F)c(Cl)c3)ncc12 as well?
Result: 7.83

Request: Let us now turn to C[C@@H](NC(=O)Nc1cc2[nH]nc(N3CC[C@@H]3C)c2cn1)c1ccccc1
Result: 7.83

Request: Try this compound next: CSC[C@@H](NC(=O)Nc1cc2[nH]nc(N)c2cn1)c1ccccc1
Result: 8.85

Request: Same thing, different compound: COC[C@@H](NC(=O)Nc1cc2[nH]nc(N[C@H]3CCOC3)c2cn1)c1ccccc1
Result: 8.89

Request: Please give the result for COC[C@@H](NC(=O)Nc1cc2[nH]nc(N3CC4CC3CO4)c2cn1)c1ccccc1 (stereo partly drawn) too.
Result: 8.52

Request: What about this compound? CC(C)(O)[C@@H](NC(=O)Nc1cc2[nH]nc(N3CCC3)c2c(CO)n1)c1ccc(F)cc1
Result: 9.05

Origin of values: patent US9233979B2
